# System: AMPA receptor
# Assay Protocol: Whole-cell voltage-clamp recording of AMPA-evoked currents in cultured hippocampal neurons
# Assay type: cell-based, rat
# Run Parameters: 30 µM AMPA; late current at end of 5 s AMPA perfusion; read-out: AMPA Response IC50, Late Current
pIC50: −log10 of the molar value.
Measurement Label: pIC50

- Molecule: "N#Cc1ccccc1-c1cc(-c2ccccn2)cn(-c2ccccc2)c1=O"
  Number: 6.05

* * *

# Tested on: AMPA receptor
# Assay Protocol: Whole-cell voltage-clamp recording of AMPA-evoked currents in cultured hippocampal neurons
# Assay type: cell-based, rat
# Run Parameters: 100 µM AMPA; late current at end of 5 s AMPA perfusion; read-out: AMPA Response IC50, Late Current
pIC50: −log10 of the molar value.

- Molecule: "N#Cc1ccccc1-c1cc(-c2ccccn2)cn(-c2ccccc2)c1=O"
  Measured On: "AMPA receptor"
  pIC50: 5.92

* * *

# Test system: AMPA receptor
# Assay Protocol: Whole-cell voltage-clamp recording of kainate-evoked (AMPA receptor) currents in cultured hippocampal neurons
# Format: cell-based, rat
# Run Parameters: 3 µM kainate; holding −60 mV; perampanel preapplied 5 s then coapplied; read-out: Kainate Response IC50
pIC50: −log10 of the molar value.

- Molecule: "N#Cc1ccccc1-c1cc(-c2ccccn2)cn(-c2ccccc2)c1=O"
  pIC50: 6.24

* * *

# Tested on: AMPA receptor
# Assay Protocol: Whole-cell voltage-clamp recording of AMPA-evoked currents in cultured hippocampal neurons
# Format: cell-based, rat
# Run Parameters: 100 µM AMPA; holding −60 mV; perampanel preapplied 5 s then coapplied; read-out: AMPA Response IC50, Peak Current
# Experimental: Primary hippocampal neuronal cultures were prepared as previously described. In brief, timed pregnant rats Sprague-Dawley rats (Charles River Laboratories International, Wilmington, MA, USA) were anesthetized with isoflurane. E18 embryos were obtained and the hippocampi were dissected and treated in Hank’s balanced salt solution (HBSS; Invitrogen, Carlsbad, CA, USA) with trypsin (0.03%, Sigma-Aldrich, St. Louis, MO) for 20 min at 37°C. […]
Measurement Label: IC50 (nM)

- Molecule: "N#Cc1ccccc1-c1cc(-c2ccccn2)cn(-c2ccccc2)c1=O"
  Unit Text: "nM"
  Number: 900
